molecular target: PIK3CD (Human) (UniProt O00329); assay: Enzyme Assay
Sequence (O00329 whole entry, looked up): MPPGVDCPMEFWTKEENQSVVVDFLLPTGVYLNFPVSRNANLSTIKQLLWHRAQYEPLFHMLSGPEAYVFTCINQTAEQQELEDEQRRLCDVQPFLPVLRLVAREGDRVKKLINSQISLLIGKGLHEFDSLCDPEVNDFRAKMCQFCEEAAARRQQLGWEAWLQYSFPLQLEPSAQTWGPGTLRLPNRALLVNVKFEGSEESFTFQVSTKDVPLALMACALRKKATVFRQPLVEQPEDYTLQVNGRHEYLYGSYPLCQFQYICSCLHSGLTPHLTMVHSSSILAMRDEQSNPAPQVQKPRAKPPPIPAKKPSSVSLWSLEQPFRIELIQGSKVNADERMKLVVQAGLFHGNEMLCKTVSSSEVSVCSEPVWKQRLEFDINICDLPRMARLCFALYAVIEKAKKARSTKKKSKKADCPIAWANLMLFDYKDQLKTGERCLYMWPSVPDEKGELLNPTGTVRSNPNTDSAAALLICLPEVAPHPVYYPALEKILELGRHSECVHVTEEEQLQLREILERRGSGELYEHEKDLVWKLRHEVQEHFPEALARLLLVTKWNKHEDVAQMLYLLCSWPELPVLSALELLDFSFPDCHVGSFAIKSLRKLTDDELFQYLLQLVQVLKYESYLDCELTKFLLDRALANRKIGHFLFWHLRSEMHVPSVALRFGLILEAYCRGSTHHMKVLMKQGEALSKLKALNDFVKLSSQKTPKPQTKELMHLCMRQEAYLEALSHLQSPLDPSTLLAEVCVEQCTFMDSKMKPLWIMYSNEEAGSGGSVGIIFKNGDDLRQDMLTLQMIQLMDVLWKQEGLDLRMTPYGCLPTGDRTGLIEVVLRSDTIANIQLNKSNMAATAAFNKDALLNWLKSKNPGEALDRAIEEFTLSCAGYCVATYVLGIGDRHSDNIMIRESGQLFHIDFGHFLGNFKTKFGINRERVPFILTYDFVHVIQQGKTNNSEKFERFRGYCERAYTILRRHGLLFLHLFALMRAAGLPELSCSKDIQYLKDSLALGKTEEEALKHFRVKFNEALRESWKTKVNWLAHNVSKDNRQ
pIC50: −log10 of the molar value.

molecule | assayed system | pIC50
C[C@H]1CN(c2cnc3ccc(-c4ccc5oc(N)nc5c4)cc3c2)CCN1 | PIK3CD (Human) (UniProt O00329) | < 5.00
CN1CCN(S(=O)(=O)c2cnc3ccc(-c4ccc5oc(N)nc5c4)cn23)CC1 | PIK3CD (Human) (UniProt O00329) | < 5.00
Nc1nc2cc(-c3ccc4nccc(-c5ccncc5)c4c3)ccc2o1 | PIK3CD (Human) (UniProt O00329) | > 7.00
CNc1nsc2cc(-c3ccc4ncc(C(=O)N5CCOCC5)n4c3)ccc12 | PIK3CD (Human) (UniProt O00329) | < 5.00
CC1CN(C(=O)c2cnc3ccc(-c4ccc5oc(N)nc5c4)cn23)CCN1 (stereo not given) | PIK3CD (Human) (UniProt O00329) | < 5.00
CC(=O)Nc1cc2ccc(-c3cc(F)c4oc(N)nc4c3)cn2n1 | PIK3CD (Human) (UniProt O00329) | < 5.00
Nc1nc2cc(-c3ccc4ncc(S(=O)(=O)N5CCOCC5)n4c3)ccc2o1 | PIK3CD (Human) (UniProt O00329) | < 5.00
Nc1nc2ccc(-c3ccc4nccc(-c5ccncc5)c4c3)cc2o1 | PIK3CD (Human) (UniProt O00329) | > 7.00
COc1ncc(-c2ccc3ncn(C4CCN(C)CC4)c(=O)c3c2)cc1NS(C)(=O)=O | PIK3CD (Human) (UniProt O00329) | > 7.00
CC(=O)Nc1nc2ccc(-c3ccc4oc(N)nc4c3)cc2s1 | PIK3CD (Human) (UniProt O00329) | > 7.00

====

target: PIK3CA (human) (UniProt P42336); assay: Enzyme Assay
Sequence (P42336 whole entry, looked up): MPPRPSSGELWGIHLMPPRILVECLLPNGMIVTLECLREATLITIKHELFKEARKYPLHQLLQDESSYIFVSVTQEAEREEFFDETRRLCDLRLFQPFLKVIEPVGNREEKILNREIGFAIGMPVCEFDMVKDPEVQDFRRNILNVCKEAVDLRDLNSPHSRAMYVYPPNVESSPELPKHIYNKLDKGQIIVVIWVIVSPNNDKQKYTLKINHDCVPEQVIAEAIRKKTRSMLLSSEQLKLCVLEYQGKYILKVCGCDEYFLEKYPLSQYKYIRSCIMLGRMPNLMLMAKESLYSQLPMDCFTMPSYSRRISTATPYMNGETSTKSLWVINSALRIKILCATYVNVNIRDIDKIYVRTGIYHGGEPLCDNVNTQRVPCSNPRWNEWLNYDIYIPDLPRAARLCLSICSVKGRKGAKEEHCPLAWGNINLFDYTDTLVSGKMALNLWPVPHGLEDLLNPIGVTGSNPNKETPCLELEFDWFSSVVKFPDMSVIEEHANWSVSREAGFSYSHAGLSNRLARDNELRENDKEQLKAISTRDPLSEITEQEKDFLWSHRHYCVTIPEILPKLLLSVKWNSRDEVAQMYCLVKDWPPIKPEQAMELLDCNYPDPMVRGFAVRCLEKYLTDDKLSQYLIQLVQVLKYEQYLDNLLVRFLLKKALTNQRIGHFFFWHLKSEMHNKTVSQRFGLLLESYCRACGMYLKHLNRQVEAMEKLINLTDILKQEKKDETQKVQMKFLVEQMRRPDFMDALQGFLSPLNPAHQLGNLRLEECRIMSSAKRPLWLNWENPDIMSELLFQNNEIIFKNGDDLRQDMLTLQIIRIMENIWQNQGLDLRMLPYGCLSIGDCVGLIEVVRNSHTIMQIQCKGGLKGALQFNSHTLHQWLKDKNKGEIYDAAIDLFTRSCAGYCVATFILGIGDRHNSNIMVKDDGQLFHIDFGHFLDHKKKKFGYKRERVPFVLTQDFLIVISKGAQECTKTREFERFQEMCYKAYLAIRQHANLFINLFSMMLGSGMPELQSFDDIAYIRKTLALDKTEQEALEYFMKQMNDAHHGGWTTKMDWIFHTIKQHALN
pIC50: −log10 of the molar value.

compound | pIC50
Nc1nc2cc(-c3ccc4ncc(-c5ccncc5)n4n3)ccc2o1 | > 7.00
Nc1nc2cc(-c3ccc4nccc(-c5ccncc5)c4c3)ccc2o1 | > 7.00
Nc1nc2ccc(-c3ccc4nccc(-c5ccncc5)c4c3)cc2s1 | > 7.00
Nc1nc2cc(-c3ccc4ncn(-c5ccncc5)c4c3)ccc2o1 | > 7.00
NC1=NC2C=C(c3ccc4oc(N)nc4c3)C=CC2O1 (stereo unspecified) | 6.00 to 7.00
CS(=O)(=O)N1CCC(n2cnc3ccc(-c4ccc5oc(N)nc5c4)cc3c2=O)CC1 | 6.00 to 7.00

====

biological target: PIK3CG (human) (UniProt P48736); test: Enzyme Assay
Sequence (P48736 whole entry, looked up): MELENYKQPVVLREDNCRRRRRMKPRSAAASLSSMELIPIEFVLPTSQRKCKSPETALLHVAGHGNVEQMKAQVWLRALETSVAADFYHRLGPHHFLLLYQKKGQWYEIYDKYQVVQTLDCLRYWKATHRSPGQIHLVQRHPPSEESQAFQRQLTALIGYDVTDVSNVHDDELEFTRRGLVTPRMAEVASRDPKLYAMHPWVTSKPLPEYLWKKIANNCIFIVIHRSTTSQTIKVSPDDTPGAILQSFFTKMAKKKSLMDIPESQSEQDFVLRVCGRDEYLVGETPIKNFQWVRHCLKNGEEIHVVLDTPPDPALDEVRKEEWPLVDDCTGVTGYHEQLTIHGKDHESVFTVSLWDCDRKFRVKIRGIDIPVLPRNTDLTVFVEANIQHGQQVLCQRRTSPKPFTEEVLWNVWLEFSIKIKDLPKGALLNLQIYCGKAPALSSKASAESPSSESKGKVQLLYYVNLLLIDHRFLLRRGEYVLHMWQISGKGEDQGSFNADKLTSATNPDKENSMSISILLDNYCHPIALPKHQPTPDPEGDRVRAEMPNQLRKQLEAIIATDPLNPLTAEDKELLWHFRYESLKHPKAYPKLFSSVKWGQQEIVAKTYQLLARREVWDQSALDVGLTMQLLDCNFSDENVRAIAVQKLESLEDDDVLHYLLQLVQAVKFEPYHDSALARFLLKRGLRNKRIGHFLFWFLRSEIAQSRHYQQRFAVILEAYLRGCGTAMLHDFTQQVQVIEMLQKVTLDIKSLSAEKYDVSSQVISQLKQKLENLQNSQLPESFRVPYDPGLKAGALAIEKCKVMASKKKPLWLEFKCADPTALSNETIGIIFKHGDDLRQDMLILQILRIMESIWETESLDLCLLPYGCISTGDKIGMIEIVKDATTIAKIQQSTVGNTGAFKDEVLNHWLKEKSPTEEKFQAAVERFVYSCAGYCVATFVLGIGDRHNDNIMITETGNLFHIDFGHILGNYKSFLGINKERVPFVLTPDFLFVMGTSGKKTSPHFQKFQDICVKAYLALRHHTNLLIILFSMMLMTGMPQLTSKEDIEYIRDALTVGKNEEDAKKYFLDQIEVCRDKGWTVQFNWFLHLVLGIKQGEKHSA
pIC50: −log10 of the molar value.
Below, each entry is listed with its recorded pIC50.

mol smiles | pIC50
Nc1nc2cc(-c3ccc4ncn(-c5ccncc5)c4c3)ccc2o1 | 6.00 to 7.00
CN(C)CC(=O)N1CCN(c2cnc3ccc(-c4ccc5oc(N)nc5c4)cc3n2)CC1 | 6.00 to 7.00
Nc1nc2ccc(-c3ccc4nccc(-c5ccncc5)c4c3)cc2s1 | 6.00 to 7.00
Nc1nc2cc(-c3ccc4ncc(NCCN5CCOCC5)nc4c3)ccc2o1 | 6.00 to 7.00
Nc1nc2cc(-c3ccc4ncc(-c5ccncc5)n4n3)ccc2o1 | > 7.00

====

Below, each entry is listed with its recorded IC50.
target: PIK3CA (human); experiment: Enzyme Assay
reported metric: IC50

molecule | recorded value
NC1=NC2C=C(c3ccc4nc(N)oc4c3)C=CC2O1 (configuration not stated) | 100 to 1000 nM
Nc1nc2cc(-c3ccc4ncc(NCCN5CCOCC5)nc4c3)ccc2o1 | < 100 nM
Nc1nc2cc(-c3ccc4ncc(C(=O)N5CCC(N6CCC(F)(F)C6)C5)n4c3)ccc2o1 (configuration not stated) | 100 to 1000 nM
CC1CN(C(=O)c2cnc3ccc(-c4ccc5oc(N)nc5c4)cn23)CCN1 (configuration not stated) | 100 to 1000 nM
Nc1nc2cc(-c3ccc4ncc(-c5cn[nH]c5)n4n3)ccc2o1 | < 100 nM
CC(=O)Nc1nc2ccc(-c3ccc4oc(N)nc4c3)cc2s1 | < 100 nM
CN1CCN(S(=O)(=O)c2cnc3ccc(-c4ccc5oc(N)nc5c4)cn23)CC1 | > 10000 nM
CC1(C)CN(C2CN(C(=O)c3cnc4ccc(-c5ccc6oc(N)nc6c5)cn34)C2)CCN1 | < 100 nM
CN1CCN(C(=O)c2cnn3ccc(-c4ccc5oc(N)nc5c4)cc23)CC1 | 100 to 1000 nM
Nc1nc2cc(-c3ccc4ncc(N[C@H]5CC[C@H](O)CC5)nc4c3)ccc2o1 | < 100 nM
COC(=O)N1CCC(N2N=CC3C(N4CCOCC4)=NC(c4ccc5oc(N)nc5c4)=NC32)CC1 (configuration not stated) | 100 to 1000 nM
Nc1nc2ccc(-c3ccc4nccc(-c5ccncc5)c4c3)cc2o1 | < 100 nM
Nc1nc2cccc(-c3ccc4nccc(-c5ccncc5)c4c3)c2s1 | < 100 nM
Nc1nc2cc(-c3ccc4ncc(-c5ccncc5)n4c3)ccc2o1 | < 100 nM
CN1CCN(n2cnc3ccc(-c4ccc5oc(N)nc5c4)cc3c2=O)CC1 | 100 to 1000 nM
Nc1nc2cc(-c3ccc4ncc(C(=O)N5C6CCC5COC6)n4c3)ccc2o1 | 100 to 1000 nM
NC(=O)[C@H]1CCCN1c1cnc2ccc(-c3ccc4oc(N)nc4c3)cc2n1 | < 100 nM
CC(=O)Nc1cc2ccc(-c3cc(F)c4oc(N)nc4c3)cn2n1 | > 10000 nM
C[C@H]1CN(c2cnc3ccc(-c4ccc5oc(N)nc5c4)cc3c2)CCN1 | < 100 nM
CNc1nsc2cc(-c3ccc4ncc(C(=O)N5CCOCC5)n4c3)ccc12 | > 10000 nM
CN(C)CC(=O)N1CCN(c2cnc3ccc(-c4ccc5oc(N)nc5c4)cc3n2)CC1 | < 100 nM
Nc1nc2cc(-c3ccc4ncc(S(=O)(=O)N5CCOCC5)n4c3)ccc2o1 | > 10000 nM
